Numbers sourced from paper PMC7614192.

# reported concentration with significant reduction in T cell proliferation; entries follow
System: activated human primary T cells (PBMC)
Experiment: Cell division tracking using CFSE
Type: cell-based
Settings: cyclotides, anti-CD3/anti-CD28 stimulated human PBMC, 72 h, n = 3
# value in µM; strip the unit string

The examples below pair each entry with its known result.
[[record]]
substance = "c-CGESCVFIPCFSTVIGCSCKNKVCYRNGVIP (bicyclic or more) [caripe 10]"
test_target = "activated human primary T cells (PBMC)"
measured_number = 10

[[record]]
substance = "c-CGESCVFIPCFSSVIGCSCKNKVCYRNGVIP (bicyclic or more) [caripe 12]"
test_target = "activated human primary T cells (PBMC)"
measured_number = 30

[[record]]
substance = "c-CGESCVFIPCFTSVFGCSCKDKVCYRNGIP (bicyclic or more) [caripe 13]"
test_target = "activated human primary T cells (PBMC)"
measured_number = 30

[[record]]
substance = "cyclo-CGESCVFIPCTVTALLGCSCKNKVCYRNGIP (bicyclic or more) [caripe 7]"
test_target = "activated human primary T cells (PBMC)"
measured_number = 10

[[record]]
substance = "c-CGESCVFIPCISTVIGCSCKKKVCYRNGVIP (bicyclic or more) [caripe 11]"
test_target = "activated human primary T cells (PBMC)"
measured_number = 30


// moving on: another record for concentration with significant reduction in T cell proliferation
Inquiry: Note concentration with significant reduction in T cell proliferation for the substance shown: c-CGESCVFIPCITAAIGCSCKKKVCYRNGVIP (bicyclic or more) [caripe 8]
Reply text: 10
